# Test system: 616215-338-R-J1-PDC spheroid with HUVEC/MSC, viability;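 note: spheroids exposed to drugs for 7 days before readout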
# EXPERIMENTAL PROTOCOL: Anticancer human tumor 616215-338-R-J1-PDC patient-derived colon adenocarcinoma cell line growth inhibition [TAK]; active = viability on the fitted dose curve at most 10% of control; inactive = the rest
# CONDITION CONTEXT: second compound 30 µM; first compound 0.01 µM
Answer with one of the outcomes Yes (active), No (inactive)

[[record]]
molecule = "CC(C)CC(NC(=O)CNC(=O)c1cc(Cl)ccc1Cl)B1OC(=O)CC(CC(=O)O)(C(=O)O)O1 (stereo not given) + CC(C)NCC(C(=O)N1CCN(c2ncnc3c2C(C)CC3O)CC1)c1ccc(Cl)cc1"
target_under_test = "616215-338-R-J1-PDC spheroid with HUVEC/MSC, viability"
label_value = "Yes"

[[record]]
molecule = "CC(C)CC(NC(=O)C(Cc1ccccc1)NC(=O)c1cnccn1)B(O)O (stereo not given) + CC(C)NCC(C(=O)N1CCN(c2ncnc3c2C(C)CC3O)CC1)c1ccc(Cl)cc1"
target_under_test = "616215-338-R-J1-PDC spheroid with HUVEC/MSC, viability"
label_value = "Yes"

[[record]]
molecule = "COc1c(OCCCN2CCOCC2)ccc2c3n(c(=NC(=O)c4cnc(N)nc4)nc12)CCN3 + CC(C)NCC(C(=O)N1CCN(c2ncnc3c2C(C)CC3O)CC1)c1ccc(Cl)cc1"
target_under_test = "616215-338-R-J1-PDC spheroid with HUVEC/MSC, viability"
label_value = "No"

[[record]]
molecule = "CC(C)n1nc(-c2ccc3oc(N)nc3c2)c2c(N)ncnc21 + CC(C)NCC(C(=O)N1CCN(c2ncnc3c2C(C)CC3O)CC1)c1ccc(Cl)cc1"
target_under_test = "616215-338-R-J1-PDC spheroid with HUVEC/MSC, viability"
label_value = "Yes"


Please let me know the test result on file for COC1CC2CCC(C)C(O)(O2)C(=O)C(=O)N2CCCCC2C(=O)OC(C(C)CC2CCC(OCCO)C(OC)C2)CC(=O)C(C)C=C(C)C(O)C(OC)C(=O)C(C)CC(C)C=CC=CC=C1C (stereo not given) + CC(C)NCC(C(=O)N1CCN(c2ncnc3c2C(C)CC3O)CC1)c1ccc(Cl)cc1 .
Yes

Hello, the source for this data is PubChem BioAssay AID2060352, in case you need it.
